System: CCRF-CEM
Test: NCI tumour cell line growth inhibition, 48 h
The source made the active and inactive calls. Rule as the data show it: active = GI50 up to about 1.1 µM and inactive = higher.
The categories you may choose from are active, inactive

| molecule | answerLabel |
| --- | --- |
| CN(C)c1n/c(=N/c2cccc(Cl)c2)ss1 | active |

# input Please indicate how the test categorized COC1/C=C\C=C(/C)C(=O)NC2=CC(=O)C(O)=C(CC(C)CC(OC)C(O)C(C)/C=C(\C)C1OC(N)=O)C2=O (centres undefined) .
# output active

# input Please indicate how the test categorized Cc1ccc(S(=O)(=O)c2ccc([N+](=O)[O-])o2)cc1 .
# output active

# input Please indicate how the test categorized COc1ccc(/C=N/Nc2nc(-c3cc4oc(=O)n(C)c4cc3Cl)cs2)cc1OC .
# output inactive

# input Please indicate how the test categorized O=C(O)CCNS(=O)(=O)c1ccc([N+](=O)[O-])cc1 .
# output inactive

# input Please indicate how the test categorized C=CCCCCOC1C=CC(OC(C)=O)C(COC(C)=O)O1 (centres undefined) .
# output inactive

# input Please indicate how the test categorized CCC1(COC(NC(=O)c2ccccc2)(C(F)(F)F)C(F)(F)F)COC1 .
# output inactive

# input Please indicate how the test categorized Cc1ncc([N+](=O)[O-])n1CCNCCCn1ccnc1[N+](=O)[O-] .
# output inactive

# input Please indicate how the test categorized C1=C(c2ccccc2)Nc2nnnn2C1c1ccccc1 (centres undefined) .
# output active

# input Please indicate how the test categorized O=C(C(Cl)=C(Nc1ccccc1)Nc1ccccc1)C(Cl)Cl .
# output inactive

# input Please indicate how the test categorized Nc1ccc(-c2nc3ccccc3s2)cc1F .
# output inactive

# input Please indicate how the test categorized O=C1Cc2c(-c3ccccc3)cc(-c3cccc(Cl)c3)nc2-c2ccccc2N1 .
# output inactive

# input Please indicate how the test categorized CN(C)N1C(=O)c2ccccc2NC1c1ccccc1 (centres undefined) .
# output inactive

# input Please indicate how the test categorized CNC(=O)OCc1nc(SSC(C)(C)C)n(C)c1COC(=O)NC .
# output active

----------
System: NCI-H226
Experiment: NCI tumour cell line growth inhibition, 48 h
Calls of active or inactive are those of the source. No stated cut-off is given here; in the data, active = GI50 up to about 1.1 µM and inactive = higher.
The categories you may choose from are active, inactive

Record excerpt, results attached:
| molecule | answerLabel |
| --- | --- |
| CCOC(=O)C(N)CSC(=O)NC (stereo not given) | inactive |
| O=C1c2ccccc2C(=O)c2c1ccc1c3ccccc3n(Cc3ccccc3)c21 | inactive |
| Nc1nnc(N)n1NC(=O)C(=O)Nc1ccc([N+](=O)[O-])cc1 | inactive |
| Cc1ccnc2nc(-c3cccc4ccccc34)cc(O)c12 | active |

# input Please indicate how the test categorized Clc1ccc(Nc2nnc(CNc3ccc(-c4nnc(Nc5ccc(Cl)cc5)o4)cc3)o2)cc1 .
# output inactive

----------
Test system: NCI-H460
Assay: NCI tumour cell line growth inhibition, 48 h
Activity calls are given as the source filed them. Cut-off read from the data, not from the text of the source: active = GI50 up to about 1.1 µM and inactive = higher.
parameter: GI50

Look over these answered cases.
| compound | GI50 |
| --- | --- |
| Cc1ccc(SC2C(=O)C3CC(OCc4ccccc4)C2(C)C3(C)C)cc1 (centres undefined) | > 100 µM (inactive) |
| Cc1ccc2n(c1)cc(-c1ccc(/C=N/NC(=N)N/N=C/c3ccc(-c4cn5cc(C)ccc5[n+]4C)cc3)cc1)[n+]2C | 80.2 µM (inactive) |

# input Item under review: Cc1cccc(NS(=O)(=O)c2ccc(/N=N/c3c(O)c(C(=O)O)cc4ccccc34)cc2)n1 . Reported GI50?
# output > 100 µM (inactive)

# input Item under review: CCOC(=O)CCC(C(=O)OCC)n1nnc2cc(Nc3c(C)[n+]([O-])c4cc(Cl)ccc4[n+]3[O-])ccc21 (centres undefined) . Reported GI50?
# output 48.3 µM (inactive)

# input Item under review: O=C(Nc1nncs1)NS(=O)(=O)n1c(=S)sc2ccccc21 . Reported GI50?
# output > 100 µM (inactive)

# input Item under review: O=S(=O)(O)c1ccc(-c2nnc(-c3ccccn3)nc2-c2ccc(S(=O)(=O)O)o2)o1 . Reported GI50?
# output > 100 µM (inactive)

# input Item under review: O=[N+]([O-])c1ccc(-[n+]2ccc3ccccc3c2)c([N+](=O)[O-])c1 . Reported GI50?
# output 10.9 µM (inactive)

# input Item under review: COc1cc(C2c3cc4c(cc3[C@@H](Nc3ccc(N5CCOCC5)cc3)C3COC(=O)[C@H]23)OCO4)cc(OC)c1O (some centres undefined) . Reported GI50?
# output < 0.01 µM (active)

# input Item under review: C=C1c2[nH]c3c([N+](=O)[O-])c(OC)ccc3c2CCN1C(C)=O . Reported GI50?
# output > 100 µM (inactive)

----------
Tested on: PC-3
Assay: NCI tumour cell line growth inhibition, 48 h
Counter-ions that a name gives are not always drawn. Active and inactive are the calls of the source. Cut-off read from the data, not from the text of the source: active = GI50 up to about 1.1 µM and inactive = higher.
The categories you may choose from are 1 = active, -1 = inactive

Record excerpt, results attached:
| molecule | answerLabel |
| --- | --- |
| COc1ccc(C2=C(Cl)C(=O)O/C2=C\c2ccc(OC)c(Br)c2)cc1Cl | -1 |
| O=C(CN1C(=O)c2ccccc2C1=O)NC1(C(=O)O)CCCC1 | -1 |
| N=C(N)N/N=C/c1c(-c2ccc([N+](=O)[O-])cc2)nc2sc(Cl)cn12 | 1 |
| CC(=O)O[C@H]1[C@@H]2OC(=O)[C@@](O)(CC3CCCO3)[C@@H]2CC(=O)[C@](C)(O)CC/C=C(\C)CCC[C@@H]1C (some centres not stated) | -1 |
| CN(C)CCOC(c1ccccc1)c1ccccc1 [DIPHENHYDRAMINE HYDROCHLORIDE] | -1 |
| CC(=O)/C(=C\I)c1ccccc1 | -1 |

Would you kindly look at the next entry?
# input Please indicate how the test categorized Cc1ccc(/C=N/NC2=NCCN2)s1 .
# output -1

----------
Test system: SF-539
Assay: NCI tumour cell line growth inhibition, 48 h
Calls of active or inactive are those of the source. No stated cut-off is given here; in the data, active = GI50 up to about 1.1 µM and inactive = higher.
Reported GI50 by item:

| smilesRepr | testSystem | GI50 |
| --- | --- | --- |
| CC1=NN(c2nc(N)nc(COCc3nc(N)nc(N4N=C(C)CC4(C)C)n3)n2)C(C)(C)C1 | SF-539 | > 100 µM (inactive) |
| CCc1nc2ccc(C(F)(F)F)cc2[nH]c1=O | SF-539 | > 100 µM (inactive) |
| O=C(NCCCCl)c1c(O)c2ccccc2[nH]c1=O | SF-539 | > 54 µM (inactive) |
| O=C(CSc1nc(-c2ccccc2)c(-c2ccccc2)[nH]1)N/N=C/c1ccc(O)cc1 | SF-539 | 19.1 µM (inactive) |
| Cc1cc2c(c(C)c1O)C(C)(C)CN2C(=O)C(C)(C)C | SF-539 | > 100 µM (inactive) |
| C=C1OC(=O)[C@]2([C@@H](/C=C/C)C=CC(=O)[C@H]2O)[C@@H]1O | SF-539 | > 100 µM (inactive) |

Turning to the following compound.
# input # value lookup — system SF-539, readout GI50, item COc1cc(Nc2nc3ccc(C(F)(F)F)cc3nc2-c2ccccc2)cc(OC)c1OC
# output 25.2 µM (inactive)

----------
System: SNB-19
Assay: NCI tumour cell line growth inhibition, 48 h
The source made the active and inactive calls. Rule as the data show it: active = GI50 up to about 1.1 µM and inactive = higher.
Reported GI50 by item:

Look over these answered cases.
| compound | reportedValue |
| --- | --- |
| CCCCCCCc1ccc(-c2nnc(/N=N/c3ccc(OCCCCC)cc3)s2)s1 | > 100 µM (inactive) |
| O=C(C(Cl)=C(Nc1ccccc1)Nc1ccccc1)C(Cl)Cl | 26.2 µM (inactive) |
| O=C(O)c1cc2ccccc2c(O)c1O | 17.9 µM (inactive) |
| COc1cc2c(c(OC)c1OC)C(=O)[C@@H]1[C@H]2N1C(=O)NCCCl | > 100 µM (inactive) |

# input # value lookup — system SNB-19, readout GI50, item c1cnn(C23C4C5C6C4C2C6C53)c1 (stereo not given)
# output > 100 µM (inactive)

----------
Tested on: MOLT-4
Assay: NCI tumour cell line growth inhibition, 48 h
Calls of active or inactive are those of the source. No stated cut-off is given here; in the data, active = GI50 up to about 1.1 µM and inactive = higher.
The categories you may choose from are YES (active), NO (inactive)

Record excerpt, results attached:
| compound | answerLabel |
| --- | --- |
| O=C1C=CC(O)C2C1CC13SSC4(CC5C(=O)C=CC(O)C5N4C1=O)C(=O)N23 (stereo not given) | YES |
| O=C1N[C@H]2C(=O)c3c(Cl)sc(Cl)c3[C@H]2O1 | NO |
| O=C(c1ccccc1)N1CCc2c([nH]c3ccccc23)C1 | NO |
| CCCCCCSc1nc(COC(=O)NC)c(COC(=O)NC)n1C | NO |

# input Please indicate how the test categorized CCCNC(/C=C/[Si](C)(C)C)CO.CCCNCC(O)/C=C/[Si](C)(C)C (stereo not given) .
# output NO

# input Please indicate how the test categorized Nc1nc(N)c2ncn(-c3ccc(Cl)c(Cl)c3)c2n1 .
# output NO

# input Please indicate how the test categorized CC(C)(O)CO/N=C1\C(=C2\C(=O)Nc3ccccc32)Nc2ccccc21 .
# output YES

# input Please indicate how the test categorized OC1(c2ccccc2)c2ccccc2N=C2NCCN21 (stereo not given) .
# output YES

# input Please indicate how the test categorized Nc1ccc(C(=O)N/C(=C\c2cccc([N+](=O)[O-])c2)c2nc3c4c(ccc3[nH]2)C(=O)c2ccccc2C4=O)cc1 .
# output NO

# input Please indicate how the test categorized CCO/C=C1\N=C(C(Cl)c2ccccc2)OC1=O (stereo not given) .
# output NO

# input Please indicate how the test categorized Cc1cc2c(c(C)c1O)C(C)(C)CN2C(=O)C(C)(C)C .
# output NO

# input Please indicate how the test categorized O=C(NCCCCl)c1c(O)c2ccccc2[nH]c1=O .
# output NO

# input Please indicate how the test categorized COC1/C=C\C=C(/C)C(=O)NC2=CC(=O)C(O)=C(CC(C)CC(OC)C(O)C(C)/C=C(\C)C1OC(N)=O)C2=O (stereo not given) .
# output YES

# input Please indicate how the test categorized COc1ccc(C2CCc3nc4nc(N)nc(N)c4cc3C2)cc1 (stereo not given) .
# output NO

# input Please indicate how the test categorized O=C(CSc1nc(-c2ccccc2)c(-c2ccccc2)[nH]1)N/N=C/c1ccc(O)cc1 .
# output NO

# input Please indicate how the test categorized O=c1[nH][nH]c(=O)n1Cc1cccc(Cn2c(=O)[nH][nH]c2=O)c1 .
# output NO

# input Please indicate how the test categorized COC(=O)C1CCC(=O)N1/C(C)=N/NC(=O)Nc1ccc(Cl)c(Cl)c1 (stereo not given) .
# output NO

# input Please indicate how the test categorized COc1ccc(C(=O)C2CCC(C(=O)O)C2)cc1 (stereo not given) .
# output NO

Value source: ChEMBL document CHEMBL1201862
